Assay: Volume of distribution at steady state in iv dosed rat
Type: ADME, organism-based
Details: in vivo, read-out: Vdss
quantity.kind: Vd (L/kg)
Report the value in L/kg with no unit label.

Ask: Sample CC(C)c1onc(-c2c(Cl)cccc2Cl)c1COc1ccc(-c2ccc3cc(C(=O)O)ncc3c2)cc1 — what was its Vd?
Result: 1.8

###

Test: Clearance in iv dosed cynomolgus monkey
Format: ADME, organism-based, Macaca fascicularis
Details: in vivo
quantity.kind: clearance (mL/min/kg)
Report the value in mL/min/kg with no unit label.

>  <compound.string>
CC(C)c1onc(-c2c(Cl)cccc2Cl)c1COc1ccc(-c2ccc3cc(C(=O)O)ncc3c2)cc1

>  <clearance, mL/min/kg>
11

$$$$

Note: attention shifts to another entry.
Ask: Sample CC(C)c1onc(-c2c(Cl)cccc2Cl)c1COc1ccc(-c2ccc3nc(C(=O)O)ccc3c2)cc1 — what was its clearance?
Result: 3.1

###

Assay: Oral bioavailability in mouse
Type: ADME, organism-based
Conditions: in vivo
quantity.kind: bioavailability (%)
Report the value in % with no unit label.

>  <compound.string>
CC(C)c1onc(-c2c(Cl)cccc2Cl)c1COc1ccc(-c2ccc3cc(C(=O)O)ncc3c2)cc1

>  <bioavailability [%]>
6.3

$$$$

Ask: Sample CC(C)c1onc(-c2c(Cl)cccc2Cl)c1COc1ccc(-c2ccc3nc(C(=O)O)ccc3c2)cc1 — what was its bioavailability?
Result: 42

###

Experiment: Volume of distribution at steady state in iv dosed Beagle dog
Type: ADME, organism-based, Canis lupus familiaris
Conditions: in vivo, read-out: Vdss
quantity.kind: Vd (L/kg)
Report the value in L/kg with no unit label.

>  <compound.string>
CC(C)c1onc(-c2c(Cl)cccc2Cl)c1COc1ccc(-c2ccc3cc(C(=O)O)ncc3c2)cc1

>  <value>
2

$$$$

Note: attention shifts to another entry.
Ask: Sample CC(C)c1onc(-c2c(Cl)cccc2Cl)c1COc1ccc(-c2ccc3nc(C(=O)O)ccc3c2)cc1 — what was its Vd?
Result: 0.31

###

Assay: Volume of distribution at steady state in iv dosed mouse
Type: ADME, organism-based
Details: in vivo, read-out: Vdss
quantity.kind: Vd (L/kg)
Report the value in L/kg with no unit label.

>  <compound.string>
CC(C)c1onc(-c2c(Cl)cccc2Cl)c1COc1ccc(-c2ccc3nc(C(=O)O)ccc3c2)cc1

>  <unit.of.measure>
L/kg

>  <Vd>
1.6

$$$$

Note: attention shifts to another entry.
Ask: Sample CC(C)c1onc(-c2c(Cl)cccc2Cl)c1COc1ccc(-c2ccc3cc(C(=O)O)ncc3c2)cc1 — what was its Vd?
Result: 5.1

###

Target: Bile acid receptor (Homo sapiens) (UniProt Q96RI1)
Sequence (Q96RI1 whole entry, the tested form may be a part): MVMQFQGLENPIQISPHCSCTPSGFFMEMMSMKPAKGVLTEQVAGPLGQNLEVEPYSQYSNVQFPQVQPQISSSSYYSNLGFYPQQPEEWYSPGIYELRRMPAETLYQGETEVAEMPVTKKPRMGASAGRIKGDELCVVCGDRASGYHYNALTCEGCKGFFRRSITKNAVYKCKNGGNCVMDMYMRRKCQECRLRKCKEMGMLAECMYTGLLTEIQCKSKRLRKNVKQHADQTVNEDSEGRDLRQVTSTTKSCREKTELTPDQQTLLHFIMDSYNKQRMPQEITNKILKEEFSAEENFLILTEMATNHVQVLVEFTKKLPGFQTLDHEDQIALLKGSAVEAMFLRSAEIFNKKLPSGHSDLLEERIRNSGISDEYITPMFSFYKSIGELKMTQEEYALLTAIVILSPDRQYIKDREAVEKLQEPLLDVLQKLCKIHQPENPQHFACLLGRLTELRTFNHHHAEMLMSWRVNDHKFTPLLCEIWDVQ
Assay: Agonist activity at human FXR LBD iexpressed in monkey CV-1 cells assessed as transactivation of luciferase reporter gene expression relative to GW 4064
Format: functional, cell-based
Design: concentration or dose not given beside the values
quantity.kind: Activity (%)
Report the value in % with no unit label.

Worked examples follow.
>  <compound.string>
CCc1cc(C(=O)O)nc2ccc(-c3ccc(OCc4c(-c5c(Cl)cccc5Cl)noc4C(C)C)cc3)cc12

>  <assayed.system>
Bile acid receptor (Homo sapiens) (UniProt Q96RI1)

>  <unit.of.measure>
%

>  <value>
109

$$$$
>  <compound.string>
Cc1nc(C(=O)O)nc2ccc(-c3ccc(OCc4c(-c5c(Cl)cccc5Cl)noc4C(C)C)cc3)cc12

>  <assayed.system>
Bile acid receptor (Homo sapiens) (UniProt Q96RI1)

>  <unit.of.measure>
%

>  <value>
127

$$$$
>  <compound.string>
CC(C)c1onc(-c2c(Cl)cccc2Cl)c1COc1ccc(-c2ccc3c(C(=O)O)nccc3c2)cc1

>  <assayed.system>
Bile acid receptor (Homo sapiens) (UniProt Q96RI1)

>  <unit.of.measure>
%

>  <value>
102

$$$$

Note: attention shifts to another entry.
Ask: Sample CC(C)c1onc(-c2c(Cl)cccc2Cl)c1COc1ccc(-c2ccc3cc(C(=O)O)ncc3c2)cc1 — what was its Activity?
Result: 86

###

Experiment: Half life in iv dosed rat
Type: ADME, organism-based
Conditions: in vivo
quantity.kind: half-life (h)
Report the value in h with no unit label.

Ask: Sample CC(C)c1onc(-c2c(Cl)cccc2Cl)c1COc1ccc(-c2ccc3cc(C(=O)O)ncc3c2)cc1 — what was its half-life?
Result: 1.47

###

Molecular target: Bile acid receptor (Homo sapiens)
Assay: Agonist activity at human FXR LBD iexpressed in monkey CV-1 cells assessed as transactivation of luciferase reporter gene expression
Format: functional, cell-based
pEC50: −log10 of the molar value.
Outcome: condition met for pEC50 of at least 7; condition not met for anything lower.

Examples from the recorded data:
>  <compound.string>
CCc1cc(C(=O)O)nc2ccc(-c3ccc(OCc4c(-c5c(Cl)cccc5Cl)noc4C(C)C)cc3)cc12

>  <category.label>
condition met

$$$$
>  <compound.string>
CC(C)c1onc(-c2c(Cl)cccc2Cl)c1COc1ccc(-c2ccc3nc(C(=O)O)nnc3c2)cc1

>  <category.label>
condition not met

$$$$
>  <compound.string>
CC(C)c1onc(-c2c(Cl)cccc2Cl)c1COc1ccc(-c2ccc3c(C(=O)O)nccc3c2)cc1

>  <category.label>
condition not met

$$$$
>  <compound.string>
Cc1cc(-c2ccc3nc(C(=O)O)ccc3c2)ccc1OCc1c(-c2c(Cl)cccc2Cl)noc1C(C)C

>  <category.label>
condition met

$$$$

Ask: Test whether the molecule CC(C)c1onc(-c2c(Cl)cccc2Cl)c1COc1ccc(-c2ccc3cc(C(=O)O)cnc3c2)cc1 records pEC50 of 7 or higher.
Result: condition not met

###

Experiment: Half life in iv dosed cynomolgus monkey
Assay type: ADME, organism-based, Macaca fascicularis
Settings: in vivo
half-life by entry:
Report the value in h with no unit label.

>  <compound.string>
CC(C)c1onc(-c2c(Cl)cccc2Cl)c1COc1ccc(-c2ccc3nc(C(=O)O)ccc3c2)cc1

>  <unit.of.measure>
h

>  <value>
2

$$$$

Note: attention shifts to another entry.
Ask: Sample CC(C)c1onc(-c2c(Cl)cccc2Cl)c1COc1ccc(-c2ccc3cc(C(=O)O)ncc3c2)cc1 — what was its half-life?
Result: 10.3

###

clearance by entry:
Assay: Clearance in iv dosed Beagle dog
Format: ADME, organism-based, Canis lupus familiaris
Conditions: in vivo

>  <compound.string>
CC(C)c1onc(-c2c(Cl)cccc2Cl)c1COc1ccc(-c2ccc3cc(C(=O)O)ncc3c2)cc1

>  <value>
8.2 mL/min/kg

$$$$

Ask: Sample CC(C)c1onc(-c2c(Cl)cccc2Cl)c1COc1ccc(-c2ccc3nc(C(=O)O)ccc3c2)cc1 — what was its clearance?
Result: 4.4 mL/min/kg

###

bioavailability by entry:
Assay: Oral bioavailability in rat
Type: ADME, organism-based
Conditions: in vivo
Record the result as a number with its unit.

>  <compound.string>
CC(C)c1onc(-c2c(Cl)cccc2Cl)c1COc1ccc(-c2ccc3cc(C(=O)O)ncc3c2)cc1

>  <bioavailability>
30%

$$$$

Note: attention shifts to another entry.
Ask: Sample CC(C)c1onc(-c2c(Cl)cccc2Cl)c1COc1ccc(-c2ccc3nc(C(=O)O)ccc3c2)cc1 — what was its bioavailability?
Result: 23%

###

Test: Oral bioavailability in Beagle dog
Assay type: ADME, organism-based, Canis lupus familiaris
Conditions: in vivo
quantity.kind: bioavailability (%)
Report the value in % with no unit label.

>  <compound.string>
CC(C)c1onc(-c2c(Cl)cccc2Cl)c1COc1ccc(-c2ccc3nc(C(=O)O)ccc3c2)cc1

>  <unit.of.measure>
%

>  <bioavailability>
23

$$$$

Note: attention shifts to another entry.
Ask: Sample CC(C)c1onc(-c2c(Cl)cccc2Cl)c1COc1ccc(-c2ccc3cc(C(=O)O)ncc3c2)cc1 — what was its bioavailability?
Result: 15

###

Test: Oral bioavailability in cynomolgus monkey
Type: ADME, organism-based, Macaca fascicularis
Settings: in vivo
quantity.kind: bioavailability (%)
Report the value in % with no unit label.

>  <compound.string>
CC(C)c1onc(-c2c(Cl)cccc2Cl)c1COc1ccc(-c2ccc3nc(C(=O)O)ccc3c2)cc1

>  <unit.of.measure>
%

>  <value>
15

$$$$

Ask: Sample CC(C)c1onc(-c2c(Cl)cccc2Cl)c1COc1ccc(-c2ccc3cc(C(=O)O)ncc3c2)cc1 — what was its bioavailability?
Result: 2.5

###

Target: Bile acid receptor (Homo sapiens, UniProt Q96RI1)
Sequence (Q96RI1 whole entry, the tested form may be a part): as above
Test: Agonist activity at human FXR LBD assessed as SRC1 peptide recruitment by FRET assay
Assay type: functional
Mark each entry YES if its EC50 sits below 0.08 µM, and NO for all others.

>  <compound.string>
Cc1cc2cc(-c3ccc(OCc4c(-c5c(Cl)cccc5Cl)noc4C(C)C)cc3)ccc2nc1C(=O)O

>  <category.label>
NO

$$$$
>  <compound.string>
CC(C)c1onc(-c2c(Cl)cccc2Cl)c1COc1ccc(-c2ccc3nc(C(=O)O)cc(O)c3c2)cc1

>  <category.label>
YES

$$$$
>  <compound.string>
CC(C)c1onc(-c2c(Cl)cccc2Cl)c1COc1ccc(-c2ccc3nc(C(=O)O)ccc3c2)cc1

>  <category.label>
NO

$$$$
>  <compound.string>
Cc1cc(-c2ccc3nc(C(=O)O)ccc3c2)ccc1OCc1c(-c2c(Cl)cccc2Cl)noc1C(C)C

>  <category.label>
NO

$$$$
>  <compound.string>
CC(C)c1onc(-c2c(Cl)cccc2Cl)c1COc1ccc(-c2ccc3c(C(=O)O)nccc3c2)cc1

>  <category.label>
NO

$$$$

Ask: Take the compound CC(C)Oc1cc(C(=O)O)nc2ccc(-c3ccc(OCc4c(-c5c(Cl)cccc5Cl)noc4C(C)C)cc3)cc12 and say whether its EC50 is less than 0.08 µM.
Result: YES

Ask: Another: CCOc1cc(C(=O)O)nc2ccc(-c3ccc(OCc4c(-c5c(Cl)cccc5Cl)noc4C(C)C)cc3)cc12
Result: YES

Ask: Another: CC(C)c1onc(-c2c(Cl)cccc2Cl)c1COc1ccc(-c2ccc3cc(C(=O)O)cnc3c2)cc1
Result: NO

// provenance: ChEMBL document CHEMBL1671792
